TARGET: T1, hGDF11 homodimer (human, UniProt O95390 299-407)
T1 sequence (looked up): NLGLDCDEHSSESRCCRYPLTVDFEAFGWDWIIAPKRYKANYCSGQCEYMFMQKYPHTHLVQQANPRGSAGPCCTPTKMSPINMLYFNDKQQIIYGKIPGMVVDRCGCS
METHOD SUMMARY: SPR, antibody captured, 25 nM antigen
Each entry below lists one item and its recorded Kd value.

- BINDER: "3E2-1 (antibody, V domains shown) VH: QVQLQQWGAGLLKPSETLSLTCAVYGGSFSGYYWSWIRQPPGKGLEWIGEINHSGNTNYNPSLKSRVTISVDTSKNQFSLKLNSVTAADTAVYYCARREATVTPYFDYWGQGTLVTVSS VL: DIQLTQSPSFLSASVGDRVTITCWASQGISSYLAWYQQKPGKAPKLLIYAASTLQSGVPSRFSGSGSGTEFTLTISSLQPEDFATYYCQQLNSYPLTFGGGTKVEIK"
  RESULT UNIT: "nM"
  Kd: 0.7
- BINDER: "21-B9 (antibody, V domains shown) VH: QVQLVQSGPGLVKPSETLSLTCTVSGGSISNSNYYWGWIRQPPGKGLEWIGTTYYSGTTYYNPSLKSRVTISVDTSKNQFSLKLSSVTAADTAVYYCARDYYDSSGYYYNWFDPWGQGTTVTVSS VL: DIQLTQSPSSLSASVGDRVTITCRASQDIRNDLGWYQQKPGKAPKRLIYAASSLQSGVPSRFSGSGSGTEFSLTLSSLQPEDFATYFCLQHHIYPWTFGQGTKLEIKR"
  RESULT UNIT: "nM"
  Kd: 0.064
- BINDER: "21-A2 (antibody, V domains shown) VH: QVQLVQSGGGLVQPGGSLRLSCAASGFTFNTYAISWVRQAPGKGLEWVSTITGSGYNTYYADSVKGRFTISRDNSKNTLYLQMSSLRAEDTAVFYCAKDSRYNWNYGIFDYWGQGTTVTVSS VL: DIQMTQSPATLSVSPGERATLSCRASQSVSSNLAWYHQKPGQAPRLLIYGVSTRATGIPARFSGNGSGTEFTLTISSLQSEDFAVYYCQQHNNWPLTFGGGTKVEIKR"
  RESULT UNIT: "nM"
  Kd: 0.9
- BINDER: "21-E5 (antibody, V domains shown) VH: QVQLVESGPGLVKPSETLSLTCTVYGGSISSGNYYWGWIRQPPGKGLEWIGTIYYSGSAYYNPSLKSRVTMSVDTSKNQFSLKLSSVTAADTAVYYCVRDYYDSSGHYYNWFDPWGQGTTVTVSS VL: AIQMTQSPSSLSASVGDRVTITCRASQDIRHDLGWYQQKPGKAPKRLIYAASSLQSGVPSRFSGSGSGTEFTLTISSLQPEDFATYYCLQHNTYPWTFGQGTKVEIKR"
  RESULT UNIT: "nM"
  Kd: 0.12
- BINDER: "4B9 (antibody, V domains shown) VH: EVQLLESGGGLVQPGGSLRLSCAASGFTSITYAMSWVRQAPGKGLEWVSAISVSGTNTYYADSVKGRFTISRDKSKNMLYLQMNSLRAEDTAVYYCAKDLLHNWKYGTFDIWGQGTMVTVSS VL: EIVMTQSPATLSVSPGERATLSCRASQSVDSNLVWYQQKPGQVPRLLIYGASTRATGIPARFSGSGSGTEFTLTISSLQSEDFAVYYCQQYNKWPLTFGGGTKVEIK"
  RESULT UNIT: "nM"
  Kd: 1.09
- BINDER: "9B4-3 (antibody, V domains shown) VH: EVQLLESGGGLVQPGESLRLSCAASGFTFSSYAMNWVRQAPGKGLEWVSTISGSGGYIYYADSVKGRFTISRDNSKNTLYLQMNSLRAEDTAVYFCAKDSRYNWNYGNFDYWGQGTLVTVSS VL: EIVMTQSPATLSVSPGERATLSCRASQNVSSNLAWNKQKPGQAPRLLIYATSTRATGVPARFSASGSGTDFALTINSLQSEDFAVYYCQQYNNWPLTFGGGTKVEIK"
  RESULT UNIT: "nM"
  Kd: 1.08
- BINDER: "1A2 (antibody, V domains shown, also called 1A2 mAb) VH: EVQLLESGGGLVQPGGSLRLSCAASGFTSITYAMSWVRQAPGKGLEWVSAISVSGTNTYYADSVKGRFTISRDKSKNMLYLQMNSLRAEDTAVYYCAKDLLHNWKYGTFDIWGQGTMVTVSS VL: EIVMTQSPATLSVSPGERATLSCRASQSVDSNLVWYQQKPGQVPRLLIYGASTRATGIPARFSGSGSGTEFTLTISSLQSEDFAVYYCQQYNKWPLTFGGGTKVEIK"
  RESULT UNIT: "nM"
  Kd: 0.3
- BINDER: "22-G10 (antibody, V domains shown) VH: QVHLKESGPTLVKPTQTLTLTCTFSGFSLSTSGVGVGWIRQPPGKALEWLALIYWNDDKRYSPSLKSRLTITKDTSKNQVVLTMTNMDPVDTATYYCTHTSRYNWHYGFLDYWGQGTTVTVSS VL: AIQMTQSPSSLSASVGDRVTITCRASQGISNYLAWFQQKPGKAPKSLIYAASSLQSGVPSKFSGSGSGTDFTLTISSLQPEDFATYYCQQYNSYPLTFGGGTKVEIKR"
  RESULT UNIT: "nM"
  Kd: 0.73
- BINDER: "4E3-7 (antibody, V domains shown) VH: EVQLLESGGGLVQPGGSLRLSCVASRFTFSSNAMSWVRQAPGTGLEWVSAITGSGSRTYYADSVKGRFTISRDNSKNTVYLQMNSLRGEDTAVYYCAKDQGGTWNYGDFDYWGQGTLVTVSS VL: EIVMTQSPATLSVSPGERATLSCRASQSVSSNLAWYQQKPGQAPRLLIYGASTRATGLPARFSGSGSGTDFTLTISSLQSEDFAVYYCQQYNNWPLTFGGGTKVEIK"
  RESULT UNIT: "nM"
  Kd: 1.33
- BINDER: "20B12 (antibody, V domains shown) VH: EVQLLESGGGLVQPGGSLRLSCAGSGITFSSYAMSWVRQAPGKGLEWVSAISGNGGTTNYADSVKGRFTISRDNSKNTLYLQMNSLRAEDTAVYYCAKERILTSSWTRYGIMDVWGQGTTVTVSS VL: EIVMTQSPATLSMSPGERATLSCRASQSVSSNLAWYQQKPGQAPRLLIYGASTRATGIPARFSGSGSGTEFTLTISSLQSEDFAVYYCQQYNNWPLTFGGGTKLEIK"
  RESULT UNIT: "nM"
  Kd: 2.08

Hey, just so you know, these numbers are from patent US20160340421A1.
